Provide the reported residual activity of each item.
assay-target: Serine/threonine-protein kinase PAK 2 (Homo sapiens)
condition-notes: at 1 µM
Give bare numbers, in %.

Solved cases below.
O=C1Nc2cc(Br)ccc2/C1=C1/Nc2ccccc2/C1=N\O = 75
C[C@@H](N)[C@H]1CC[C@H](C(=O)Nc2ccncc2)CC1 = 106
Oc1c2ccccc2c2c3c(cccc13)N=N2 = 96

Take each entry in turn and give its residual activity.
1. CC#CC(=O)Nc1cc2c(Nc3ccc(F)c(Cl)c3)ncnc2cn1
2. O=C(Nc1cccc(Nc2nccc(Nc3cccc(C(F)(F)F)c3)n2)c1)C1CC1
3. O=Nc1c(-c2c(O)[nH]c3ccccc23)[nH]c2ccccc12

Result:
1: 82; 2: 116; 3: 103

====

assay-target: Serine/threonine-protein kinase Chk2 (Homo sapiens)
condition-notes: at 1 µM
Output true (1) for records whose residual activity is lower than 90%, false (0) for records at or above 90%.

See these solved cases before continuing.
Oc1ccc(Nc2nc(-c3ccc(Cl)cc3)cs2)cc1 = true (1)
CN(C)c1ccc(/C=C2\C(=O)Nc3ccccc32)cc1 = true (1)
CCC(=O)Nc1ccc2ncnc(Nc3cccc(Br)c3)c2c1 = false (0)

Ask: Does the reported residual activity of CC#CC(=O)Nc1cc2c(Nc3ccc(F)c(Cl)c3)ncnc2cn1 stay below 90%?
Result: false (0)

Ask: And the next one, Cc1cncc2cccc(S(=O)(=O)N3CCCN(C(=O)CN)C[C@H]3C)c12 ?
Result: true (1)

====

assay-target: Death-associated protein kinase 3 (Homo sapiens) (UniProt O43293)
Sequence (O43293 whole entry, looked up): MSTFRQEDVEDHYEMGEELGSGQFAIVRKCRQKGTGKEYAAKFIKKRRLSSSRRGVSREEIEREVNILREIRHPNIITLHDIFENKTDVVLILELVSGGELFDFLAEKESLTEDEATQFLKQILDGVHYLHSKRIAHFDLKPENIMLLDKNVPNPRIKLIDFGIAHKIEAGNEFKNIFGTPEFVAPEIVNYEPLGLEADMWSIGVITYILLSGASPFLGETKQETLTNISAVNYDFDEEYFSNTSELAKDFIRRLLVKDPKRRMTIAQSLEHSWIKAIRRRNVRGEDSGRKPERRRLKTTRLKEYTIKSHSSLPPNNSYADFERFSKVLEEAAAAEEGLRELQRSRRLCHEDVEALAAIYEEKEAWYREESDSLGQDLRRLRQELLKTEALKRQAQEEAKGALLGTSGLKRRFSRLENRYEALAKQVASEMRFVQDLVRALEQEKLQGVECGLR
condition-notes: at 1 µM
readout-name: residual activity (%)
Give bare numbers, in %.

Use these answered entries as a reference point.
Nc1cccc(-c2cc3c(Oc4cccc(O)c4)ncnc3[nH]2)c1 = 92
Cc1ccc(S(=O)(=O)/C=C/C#N)cc1 = 88
O=C1NC(=O)c2c1c1c3ccccc3[nH]c1c1[nH]c3cc(Br)ccc3c21 = 102

Give residual activity for all compounds that follow.
1. CC(C)n1cnc2/c(=N/c3cccc(Cl)c3)nc(NCCO)[nH]c21
2. Cn1nc2c3c(cccc31)C(=O)c1ccccc1-2
3. CC(=O)c1ccc(N2CCOCC2)cc1O
4. Nc1nc(Nc2ccc(S(N)(=O)=O)cc2)nn1C(=S)Nc1c(F)cccc1F

Result:
[103, 77, 106, 90]

====

assay-target: Protein kinase C iota type (Homo sapiens) (UniProt P41743)
Sequence (P41743 whole entry): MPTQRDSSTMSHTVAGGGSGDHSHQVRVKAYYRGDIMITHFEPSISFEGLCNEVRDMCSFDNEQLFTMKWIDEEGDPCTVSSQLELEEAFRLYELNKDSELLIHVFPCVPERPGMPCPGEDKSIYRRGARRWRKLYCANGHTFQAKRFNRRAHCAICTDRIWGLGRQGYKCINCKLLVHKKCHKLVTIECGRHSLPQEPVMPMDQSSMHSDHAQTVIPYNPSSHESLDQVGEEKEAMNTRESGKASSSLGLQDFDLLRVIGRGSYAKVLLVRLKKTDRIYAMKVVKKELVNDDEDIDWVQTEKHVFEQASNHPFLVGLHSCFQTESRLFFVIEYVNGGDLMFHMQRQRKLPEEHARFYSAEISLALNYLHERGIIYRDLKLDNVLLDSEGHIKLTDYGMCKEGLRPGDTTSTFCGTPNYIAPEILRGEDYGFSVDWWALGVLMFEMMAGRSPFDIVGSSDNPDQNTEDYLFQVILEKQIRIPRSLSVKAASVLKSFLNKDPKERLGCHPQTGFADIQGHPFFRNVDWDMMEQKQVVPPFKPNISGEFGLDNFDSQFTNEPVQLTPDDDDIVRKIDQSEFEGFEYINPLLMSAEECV
condition-notes: at 10 µM
readout-name: residual activity (%)
One number for each entry, in %.

Observe how each entry below is paired with its result.
COc1ccc(CNc2nc(N(CCO)CCO)nc3c2ncn3C(C)C)cc1 = 108
O=C(Nc1cccc(Nc2nccc(Nc3cccc(C(F)(F)F)c3)n2)c1)C1CC1 = 77
CC(=O)O/N=C1\C(=C2\C(=O)Nc3cc(Br)ccc32)Nc2ccccc21 = 103
Cn1nc2c3c(cccc31)C(=O)c1ccccc1-2 = 105
COc1cc2ncnc(Nc3ccc(O)c(Br)c3)c2cc1OC = 106
Cc1cc(Nc2nc(-c3ccccc3)nc3ccccc23)n[nH]1 = 107
CO[C@H]1[C@@H](OC)C[C@H](C)[C@@H](OC)C2=CC(=O)C=C(NC(=O)/C(C)=C/C=C/[C@H](OC)[C@@H](OC(N)=O)/C(C)=C/[C@@H]1C)C2=O = 71
COc1cccc(-c2cc(=O)c3ccccc3o2)c1N = 108
O=c1c2ccccc2[nH]c(=S)n1CCN1CCC(=C(c2ccc(F)cc2)c2ccc(F)cc2)CC1 = 81
Cn1cc(/C=C2\C(=O)Nc3ccc(S(N)(=O)=O)cc32)c2ccccc21 = 87

Quick batch: residual activity for everything below.
1. Cn1cnc2cc3c(Nc4cccc(Br)c4)ncnc3cc21
2. CN(C)c1ccc(/C=C2\C(=O)Nc3ccccc32)cc1

Result:
1: 76; 2: 78

====

assay-target: Ribosomal protein S6 kinase alpha-5 (Homo sapiens) (UniProt O75582)
Sequence (O75582 whole entry, looked up): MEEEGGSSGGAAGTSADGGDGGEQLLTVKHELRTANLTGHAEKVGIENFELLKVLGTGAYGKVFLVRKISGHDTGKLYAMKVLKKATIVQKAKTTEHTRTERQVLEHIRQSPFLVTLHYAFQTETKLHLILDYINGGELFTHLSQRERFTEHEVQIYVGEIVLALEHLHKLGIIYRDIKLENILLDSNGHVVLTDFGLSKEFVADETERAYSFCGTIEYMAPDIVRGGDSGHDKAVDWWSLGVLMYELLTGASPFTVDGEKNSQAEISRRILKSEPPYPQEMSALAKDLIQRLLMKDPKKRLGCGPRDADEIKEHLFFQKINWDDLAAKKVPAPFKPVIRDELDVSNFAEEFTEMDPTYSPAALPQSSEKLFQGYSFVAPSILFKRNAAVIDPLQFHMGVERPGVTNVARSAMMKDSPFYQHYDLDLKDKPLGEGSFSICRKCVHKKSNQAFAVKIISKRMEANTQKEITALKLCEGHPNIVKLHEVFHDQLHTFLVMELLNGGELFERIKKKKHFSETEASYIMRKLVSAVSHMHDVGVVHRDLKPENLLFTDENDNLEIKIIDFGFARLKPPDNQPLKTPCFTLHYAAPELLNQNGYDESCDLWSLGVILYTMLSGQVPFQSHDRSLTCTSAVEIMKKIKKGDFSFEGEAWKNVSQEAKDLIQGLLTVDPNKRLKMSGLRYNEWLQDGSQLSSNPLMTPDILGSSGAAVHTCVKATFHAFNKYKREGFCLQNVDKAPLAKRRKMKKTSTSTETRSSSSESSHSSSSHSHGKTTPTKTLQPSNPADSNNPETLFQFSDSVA
condition-notes: at 10 µM
readout-name: residual activity (%)
Answers are plain numbers, in %.

Worked cases, residual activity given:
CCN(CC)CCCCN1c2ccccc2Oc2ccc(Cl)cc21 = 119
CN(C)c1ccc(/C=C2\C(=O)Nc3ccccc32)cc1 = 79

For every item in the list below, what is its measured residual activity?
1. COc1ccc(C(=O)Nc2sc3c(c2C(N)=O)CCCC3)cc1OC
2. CC#CC(=O)Nc1cc2c(Nc3ccc(F)c(Cl)c3)ncnc2cn1
3. Cc1cncc2cccc(S(=O)(=O)N3CCCN(C(=O)CN)C[C@H]3C)c12
4. O=C1Nc2ccc(Br)cc2/C1=C\c1cc2c([nH]1)CCCC2
5. N#CC(C#N)=C(N)/C(C#N)=C/c1ccc(O)cc1
6. CCOc1cc2ncnc(Nc3cccc(Br)c3)c2cc1OCC
7. Nc1nc(Nc2ccc(S(N)(=O)=O)cc2)nn1C(=S)Nc1c(F)cccc1F

Result:
[88, 102, 54, 105, 92, 101, 70]

Please look at the items below and tell me residual activity for each one, in order.
1. Nc1n[nH]c2nnc(-c3c(-c4ccccc4)nn4ccccc34)cc12
2. CC(C)n1cnc2/c(=N/c3cccc(Cl)c3)nc(NCCO)[nH]c21
3. O=c1cc(-c2cccc3c2Sc2ccccc2S3)oc(N2CCOCC2)c1

Result:
[113, 50, 116]

====

Exercise: state measured residual activity for each of the molecules provided.
assay-target: Serine/threonine-protein kinase TAO1 (Homo sapiens)
condition-notes: at 10 µM
# answer = value followed by unit

The following molecules have reported results that may help.
NC(=O)c1ccc2[nH]c(-c3ccc(Oc4ccc(Cl)cc4)cc3)nc2c1 = 72%
COc1cc2ncc(-c3ccccc3)nc2cc1OC = 91%
Cc1cccc(-c2[nH]c(C(C)(C)C)nc2-c2ccc3c(c2)OCO3)n1 = 98%

I would be grateful if you could provide residual activity for each of the following entries.
1. Oc1c2ccccc2c2c3c(cccc13)N=N2
2. O=C1Nc2ccc(Br)cc2/C1=C\c1cc2c([nH]1)CCCC2
3. Ic1cccc(CSc2nnc(-c3ccncc3)o2)c1

Result:
1. 25%
2. 98%
3. 47%

Return reported residual activity values for all items listed beneath this line.
1. Cc1ccc(NC2=CC(=O)c3sc(C)nc3C2=O)cc1
2. Cc1cc(Nc2nc(-c3ccccc3)nc3ccccc23)n[nH]1
3. O=C1NC(=O)c2cc(Nc3ccc(F)cc3)c(Nc3ccc(F)cc3)cc21
4. CCC(=O)Nc1ccc2ncnc(Nc3cccc(Br)c3)c2c1
5. O=C1NC(=O)/C(=C/c2ccc3c(c2)OC(F)(F)O3)S1
6. Cc1nc2cc3nc(-c4cccs4)cnc3cc2n1C
7. CC(=O)c1ccc(N2CCOCC2)cc1O

Result:
1: 77%; 2: 51%; 3: 39%; 4: 86%; 5: 74%; 6: 100%; 7: 95%

====

Field: residual activity. Provide a value for each of the compounds that follow.
assay-target: Serine/threonine-protein kinase DCLK2 (Homo sapiens)
condition-notes: at 1 µM
Please state the number and follow it with the unit.

See these solved cases before continuing.
Cn1cc(/C=C2\C(=O)Nc3ccc(S(N)(=O)=O)cc32)c2ccccc21 = 97%
COc1cc2ncnc(Nc3ccc(O)c(Br)c3)c2cc1OC = 73%
O=C1Nc2cc(Br)ccc2/C1=C1/Nc2ccccc2/C1=N\O = 89%
Nc1ccc2ncnc(NCCc3ccc(Oc4ccccc4)cc3)c2c1 = 110%
Cn1nc2c3c(cccc31)C(=O)c1ccccc1-2 = 75%
CCN(CC)CCCCN1c2ccccc2Oc2ccc(Cl)cc21 = 96%
O=C(O)c1ccc2c3c1cccc3c(=O)n1c3ccccc3nc21 = 117%
CNc1cc2c(Nc3cccc(Br)c3)ncnc2cn1 = 121%
Nc1cccc(-c2cc3c(Oc4cccc(O)c4)ncnc3[nH]2)c1 = 104%
c1ccc(-c2n[nH]c3c2oc2ccccc23)cc1 = 82%

Here are 4 compounds. What values of residual activity were reported for them?
1. CCOc1cc2ncnc(Nc3cccc(Br)c3)c2cc1OCC
2. O=C1NC(=O)/C(=C/c2ccc3c(c2)OC(F)(F)O3)S1
3. Cc1cc2ncc(-c3ccccc3)nc2cc1C
4. CO[C@H]1[C@@H](OC)C[C@H](C)[C@@H](OC)C2=CC(=O)C=C(NC(=O)/C(C)=C/C=C/[C@H](OC)[C@@H](OC(N)=O)/C(C)=C/[C@@H]1C)C2=O

Result:
1: 84%; 2: 110%; 3: 95%; 4: 89%

Batch: residual activity for all items listed.
1. N#CC(C#N)=C(N)/C(C#N)=C/c1ccc(O)cc1
2. O=C1NC(=O)c2cc(Nc3ccc(F)cc3)c(Nc3ccc(F)cc3)cc21

Result:
94%
76%

Batch request: residual activity for each of the following compounds.
1. O=C1Nc2ccccc2/C1=C1/Nc2ccccc2/C1=N\OCCC(O)CO (stereo not drawn)
2. Nc1nc(Nc2ccc(S(N)(=O)=O)cc2)nn1C(=S)Nc1c(F)cccc1F

Result:
1. 99%
2. 13%
